# credit: patent US20170015742A1

Would you mind telling me the reported koff of each entry?
- target-system: T1, recombinant human PDGF-BB (human, UniProt P01127 82-190, biotin-labelled in the binding and competition ELISAs (sites not given))
- T1 construct: Bought protein (CST cat#8912BF) in the ELISAs and cell assays; purified recombinant PDGF-BB in Biacore; also called huPDGF-BB; hPDGF-BB
- T1 sequence (P01127 82-190 limits assumed): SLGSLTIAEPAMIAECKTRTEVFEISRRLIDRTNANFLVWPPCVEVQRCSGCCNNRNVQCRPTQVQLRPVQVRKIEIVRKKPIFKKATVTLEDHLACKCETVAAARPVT
- test-description: Biacore SPR, antibody captured by anti-human Fc, PDGF-BB injected
One number for each entry, in s⁻¹.

Reference set, count: 3
>>> result("chBFU-11A8-D6-C3 (antibody, human IgG1, V domains shown) VH: EVQLQQSGPELQRPGASVKLSCKASGYTFTESYIYWVKQRPEQSLELIGRIDPEDGSTDYVEKFKNKATLTADTSSNTAYMQLSSLTSEDTATYFCARFGARSYFYPMDAWGQGTSVTVSS VL: DTVLTQSPTLAVSPGERVSIPCRASESVSTLMHWYQQKPGQQPRLLIYGASNLESGVPARFSGSGSGTDFTLTIDPVEADDTATYFCQQSWNDPWTFGGGTKLELK")
0.00015
>>> result("chBDI-5H1 (antibody, human IgG1, V domains shown, also called chimeric BDI-5H1-F6) VH: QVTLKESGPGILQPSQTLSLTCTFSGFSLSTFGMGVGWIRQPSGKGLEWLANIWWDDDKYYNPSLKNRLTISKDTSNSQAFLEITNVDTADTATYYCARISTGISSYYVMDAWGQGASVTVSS VL: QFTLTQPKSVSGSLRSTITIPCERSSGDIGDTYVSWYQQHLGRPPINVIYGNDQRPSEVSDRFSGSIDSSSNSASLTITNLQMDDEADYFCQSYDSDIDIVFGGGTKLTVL")
0.00015
>>> result("chBDI-9E8 (antibody, V domains shown, also called chimeric BDI-9E8-E7) VH: QVTLKESGPGILQPSQTLSLTCTFSGFSLSTYGMGVGWIRQPSGKGLEWLANIWWDDDKYYNPSLKNRLTISKDTSNNQAFLKITNVDTADTATYYCARIESIGTTYSFDYWGQGVMVTVSS VL: QFTLTQPKSVSGSLRSTITIPCERSSGDIGDSYVSWYQQHLGRPPINVIYADDQRPSEVSDRFSGSIDSSSNSASLTITNLQMDDEADYFCQSYDINIDIVFGGGTKLTVL")
0.00012

get_value(item= chBFU-3E2-B9-B8 (antibody, human IgG1, V domains shown) VH: EVQLQQSGPELQRPGASVKLSCKASGYTFTESYMYWVKQRPEQSLELIGRIDPEDGSTDYVEKFKNKATLTADTSSNTAYMQLSSLTSEDSATYFCARFGARSYFYPMDAWGQGTSVTVSS VL: DTVLTQPPALAVSPGERVSISCRASESVSTLMHWYQQKPGQQPRLLIYGASNLESGVPARFSGSGSGTDFTLTIDPVEADDTATYFCQQSWNDPWTFGGGTKLELK , readout=koff) returns 0.00019
